Entry source: paper PMC6304448

- Protocol notes: In-vitro cytotoxicity assay
- Format: cell-based
- Cond: African green monkey, VERO cells (mammalian kidney fibroblasts, ATCC)
Observable: IC50 at 48 h (µg/mL)
Express it in µg/mL; write the number only.

Q) State the recorded IC50 at 48 h for this entry: O=C1CC(O)C2c3c(ccc(O)c31)-c1ccc(O)c3c1C2(O)C(O)CC3=O (stereo not shown)
A) 3.59
